Data origin: patent US20250243488A1

# Test system: GRN mRNA
# experiment description: GRN mRNA qPCR in SK-N-AS cells transfected with ASOs
# Format: cell-based, human
# measurement setup: Table 10; SK-N-AS, 3.75 nM, 48 hours; normalized to CO-1589
Oligonucleotides are written 5' to 3', each unit as a sugar letter and its base; * is a phosphorothioate linkage, no mark a phosphodiester; rarer units and linkages stand in square brackets, end groups in braces. Plain capitals give the bases only. e = 2'-O-(2-methoxyethyl) (MOE); [5mC] = 5-methylcytosine
# 3.75 nM FC (GRN mRNA) per entry
Number only, in FC; omit the unit.

INSERT INTO measurements (substance, measured) VALUES
  ('CO-4611: ASO designed to target intergenic enhancers (eRNA) (antisense eT*eA*eT*eT*eA*eA*eT*e[5mC]*e[5mC]*eA*e[5mC]*eG*e[5mC]*eT*eG*eT*e[5mC]*e[5mC]*e[5mC]*eA)', 1.1);

Tell me the measured 3.75 nM FC (GRN mRNA) of CO-4606: ASO designed to target intergenic enhancers (eRNA) (antisense eA*e[5mC]*eG*eT*eG*eA*eA*eG*eA*eG*e[5mC]*e[5mC]*eG*eG*eA*eG*eA*eT*eT*e[5mC]) , please. 1.1

Which 3.75 nM FC (GRN mRNA) is reported for this substance? CO-4622: ASO designed to target intergenic enhancers (eRNA) (antisense eA*e[5mC]*eA*eG*eT*eG*eG*e[5mC]*e[5mC]*eG*e[5mC]*eA*eT*eA*eA*eA*eT*eT*eT*e[5mC]) 1.0
